target: Serine/threonine-protein kinase Nek7 (Homo sapiens) (UniProt Q8TDX7); details: at 10 µM
Sequence (Q8TDX7 whole entry, looked up): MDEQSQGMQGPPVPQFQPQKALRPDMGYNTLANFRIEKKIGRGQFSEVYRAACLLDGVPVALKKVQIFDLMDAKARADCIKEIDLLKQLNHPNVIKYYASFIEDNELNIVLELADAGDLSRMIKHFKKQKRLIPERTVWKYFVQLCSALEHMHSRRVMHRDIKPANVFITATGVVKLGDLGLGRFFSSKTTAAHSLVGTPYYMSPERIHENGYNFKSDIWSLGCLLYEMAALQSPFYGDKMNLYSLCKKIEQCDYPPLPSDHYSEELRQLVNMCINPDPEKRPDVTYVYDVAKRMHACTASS
Description: Millipore: Percentage of residual kinase activity of NEK7 at 10uM relative to control. Control inhibitor: Phosphoric acid* at 0.3uM. Buffer: 8 mM MOPS pH 7.0, 0.2 mM EDTA
The reader will find reported residual activity values listed item by item below.
Expressed in %, but write only the number.

Before answering, review these 5 worked examples.
{"molecule": "COc1cccc(-c2cc(=O)c3ccccc3o2)c1N", "result-unit": "%", "measured-result": 106}
{"molecule": "Oc1ccc(Nc2nc(-c3ccc(Cl)cc3)cs2)cc1", "result-unit": "%", "measured-result": 106}
{"molecule": "O=C1NC(=O)/C(=C/c2ccc3c(c2)OC(F)(F)O3)S1", "result-unit": "%", "measured-result": 97}
{"molecule": "Cn1nc2c3c(cccc31)C(=O)c1ccccc1-2", "result-unit": "%", "measured-result": 86}
{"molecule": "CO[C@H]1C[C@@H]2CC[C@@H](C)[C@@](O)(O2)C(=O)C(=O)N2CCCC[C@H]2C(=O)O[C@H]([C@H](C)C[C@@H]2CC[C@@H](O)[C@H](OC)C2)CC(=O)[C@H](C)/C=C(\\C)[C@@H](O)[C@@H](OC)C(=O)[C@H](C)C[C@H](C)/C=C/C=C/C=C/1C", "result-unit": "%", "measured-result": 115}

query: Give a short answer stating reported residual activity for O=C1NC(=O)c2c1c1c3ccccc3[nH]c1c1[nH]c3cc(Br)ccc3c21 .
result: 89

query: Give a short answer stating reported residual activity for O=C1NC(=O)c2cc(Nc3ccc(F)cc3)c(Nc3ccc(F)cc3)cc21 .
result: 98

query: Give a short answer stating reported residual activity for CCN(CC)C(=O)c1ccc(Nc2nc(OCC3CCCCC3)c3nc[nH]c3n2)cc1 .
result: 82

query: Give a short answer stating reported residual activity for COc1cc2ncnc(N3CCN(C(=O)Nc4ccc(Oc5ccccc5)cc4)CC3)c2cc1OC .
result: 113

* * *

target: Macrophage-stimulating protein receptor (Homo sapiens) (UniProt Q04912); conditions: at 10 µM
Sequence (Q04912 25-304 limits assumed): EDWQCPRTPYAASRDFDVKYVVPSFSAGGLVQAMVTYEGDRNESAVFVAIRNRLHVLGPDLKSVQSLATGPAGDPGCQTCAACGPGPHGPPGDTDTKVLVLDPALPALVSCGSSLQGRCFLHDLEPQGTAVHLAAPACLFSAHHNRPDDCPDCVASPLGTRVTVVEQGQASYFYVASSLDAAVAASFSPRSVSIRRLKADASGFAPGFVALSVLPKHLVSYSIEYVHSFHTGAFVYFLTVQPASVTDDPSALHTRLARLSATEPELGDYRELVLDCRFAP
Sequence (Q04912 310-1400 limits assumed): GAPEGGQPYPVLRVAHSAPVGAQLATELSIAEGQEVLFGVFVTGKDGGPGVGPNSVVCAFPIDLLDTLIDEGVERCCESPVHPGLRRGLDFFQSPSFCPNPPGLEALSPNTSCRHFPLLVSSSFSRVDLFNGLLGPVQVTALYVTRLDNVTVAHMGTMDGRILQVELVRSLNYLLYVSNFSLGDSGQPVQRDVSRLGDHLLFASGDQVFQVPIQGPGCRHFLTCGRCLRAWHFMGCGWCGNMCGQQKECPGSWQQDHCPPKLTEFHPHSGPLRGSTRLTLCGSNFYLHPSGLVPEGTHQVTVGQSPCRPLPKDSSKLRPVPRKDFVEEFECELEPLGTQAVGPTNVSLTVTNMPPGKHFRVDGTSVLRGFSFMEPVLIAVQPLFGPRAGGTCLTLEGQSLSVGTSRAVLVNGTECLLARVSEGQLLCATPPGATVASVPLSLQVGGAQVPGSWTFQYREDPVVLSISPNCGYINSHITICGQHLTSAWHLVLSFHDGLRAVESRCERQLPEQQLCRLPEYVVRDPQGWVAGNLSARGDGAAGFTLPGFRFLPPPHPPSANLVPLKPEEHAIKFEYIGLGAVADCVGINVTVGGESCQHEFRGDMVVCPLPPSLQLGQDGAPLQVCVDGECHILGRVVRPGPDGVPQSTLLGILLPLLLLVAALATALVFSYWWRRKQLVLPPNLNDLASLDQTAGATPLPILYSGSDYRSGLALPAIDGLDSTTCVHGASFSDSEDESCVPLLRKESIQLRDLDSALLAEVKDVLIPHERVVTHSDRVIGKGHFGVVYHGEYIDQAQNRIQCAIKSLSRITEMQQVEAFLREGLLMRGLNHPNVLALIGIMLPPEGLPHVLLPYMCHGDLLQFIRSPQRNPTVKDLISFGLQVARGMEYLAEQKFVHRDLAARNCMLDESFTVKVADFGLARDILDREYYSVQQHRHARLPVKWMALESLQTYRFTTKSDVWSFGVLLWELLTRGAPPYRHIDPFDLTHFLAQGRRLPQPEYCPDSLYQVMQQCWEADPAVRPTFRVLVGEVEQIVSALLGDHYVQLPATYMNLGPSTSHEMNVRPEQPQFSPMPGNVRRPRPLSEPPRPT
// NB: equality with 80% counts as 0; only residual activity strictly below is 1

Answered cases to consult:
{"molecule": "O=C1NC(=O)c2c1c1c3ccccc3[nH]c1c1[nH]c3cc(Br)ccc3c21", "system-under-test": "Macrophage-stimulating protein receptor (Homo sapiens) (UniProt Q04912)", "category": 0}
{"molecule": "COc1cccc(-c2cc(=O)c3ccccc3o2)c1N", "system-under-test": "Macrophage-stimulating protein receptor (Homo sapiens) (UniProt Q04912)", "category": 0}
{"molecule": "O=C1Nc2cc(Br)ccc2/C1=C1/Nc2ccccc2/C1=N\\O", "system-under-test": "Macrophage-stimulating protein receptor (Homo sapiens) (UniProt Q04912)", "category": 0}
{"molecule": "N#Cc1cnc2cnc(NCc3cccnc3)cc2c1Nc1ccc(F)c(Cl)c1", "system-under-test": "Macrophage-stimulating protein receptor (Homo sapiens) (UniProt Q04912)", "category": 0}

Below: the item to evaluate.
query: Decide: residual activity of O=C(Nc1cccc(Nc2nccc(Nc3cccc(C(F)(F)F)c3)n2)c1)C1CC1 strictly below 80%?
result: 1

* * *

Biological target: Inhibitor of nuclear factor kappa-B kinase subunit alpha (Homo sapiens) (UniProt O15111)
Sequence (whole entry): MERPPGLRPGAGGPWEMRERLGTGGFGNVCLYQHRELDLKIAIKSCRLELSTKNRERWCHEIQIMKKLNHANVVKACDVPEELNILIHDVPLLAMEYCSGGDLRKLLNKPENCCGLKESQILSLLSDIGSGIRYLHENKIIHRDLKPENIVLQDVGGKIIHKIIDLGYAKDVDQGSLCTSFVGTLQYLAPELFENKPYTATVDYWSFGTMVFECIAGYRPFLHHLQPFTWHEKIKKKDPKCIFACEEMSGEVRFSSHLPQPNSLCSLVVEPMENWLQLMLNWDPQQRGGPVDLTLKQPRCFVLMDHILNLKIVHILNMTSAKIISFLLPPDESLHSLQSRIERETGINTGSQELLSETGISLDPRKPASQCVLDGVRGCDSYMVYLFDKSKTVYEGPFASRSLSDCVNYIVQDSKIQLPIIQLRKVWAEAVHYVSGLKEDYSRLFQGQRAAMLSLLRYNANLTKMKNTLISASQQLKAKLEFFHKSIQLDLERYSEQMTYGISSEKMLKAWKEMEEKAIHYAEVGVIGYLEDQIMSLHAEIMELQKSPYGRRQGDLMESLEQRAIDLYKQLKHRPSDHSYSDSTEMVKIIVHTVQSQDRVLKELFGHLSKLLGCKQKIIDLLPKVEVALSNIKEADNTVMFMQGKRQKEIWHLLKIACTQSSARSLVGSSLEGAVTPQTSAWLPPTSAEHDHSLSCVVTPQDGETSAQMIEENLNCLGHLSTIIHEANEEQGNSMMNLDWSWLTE
Details: at 1 µM
value-kind: residual activity (%)
Expressed in %, but write only the number.

query: Give a short answer stating reported residual activity for O=C1NC(=O)c2c1c1c3ccccc3[nH]c1c1[nH]c3cc(Br)ccc3c21 .
result: 89

query: Give a short answer stating reported residual activity for CO[C@@H]1[C@H](N(C)C(=O)c2ccccc2)C[C@H]2O[C@]1(C)n1c3ccccc3c3c4c(c5c6ccccc6n2c5c31)C(=O)NC4 .
result: 101

query: Give a short answer stating reported residual activity for Cc1cc(Nc2nc(-c3ccccc3)nc3ccccc23)n[nH]1 .
result: 102

query: Give a short answer stating reported residual activity for Cc1ccc(S(=O)(=O)/C=C/C#N)cc1 .
result: 100

query: Give a short answer stating reported residual activity for O=C1Nc2cc(Br)ccc2/C1=C1/Nc2ccccc2/C1=N\O .
result: 105

query: Give a short answer stating reported residual activity for O=c1cc(-c2cccc3c2Sc2ccccc2S3)oc(N2CCOCC2)c1 .
result: 98

* * *

target: Calcium/calmodulin-dependent protein kinase type IV (Homo sapiens); conditions: at 10 µM
value-kind: residual activity (%)
Expressed in %, but write only the number.

Before answering, review these 3 worked examples.
{"molecule": "COc1ccc(CNc2nc(N(CCO)CCO)nc3c2ncn3C(C)C)cc1", "system-under-test": "Calcium/calmodulin-dependent protein kinase type IV (Homo sapiens)", "measured-result": 78}
{"molecule": "O=C(O)c1ccc2c3c1cccc3c(=O)n1c3ccccc3nc21", "system-under-test": "Calcium/calmodulin-dependent protein kinase type IV (Homo sapiens)", "measured-result": 21}
{"molecule": "Cn1nc2c3c(cccc31)C(=O)c1ccccc1-2", "system-under-test": "Calcium/calmodulin-dependent protein kinase type IV (Homo sapiens)", "measured-result": 62}

query: Give a short answer stating reported residual activity for c1ccc(-c2n[nH]cc2-c2ccnc3ccccc23)nc1 .
result: 78

query: Give a short answer stating reported residual activity for C[C@@H](N)[C@H]1CC[C@H](C(=O)Nc2ccncc2)CC1 .
result: 90

query: Give a short answer stating reported residual activity for Oc1c2ccccc2c2c3c(cccc13)N=N2 .
result: 24

query: Give a short answer stating reported residual activity for CC[n+]1c(/C=C/N(C)c2ccccc2)n(-c2ccccc2)c2ccc(-c3nc4ccccc4s3)cc21 .
result: 95

query: Give a short answer stating reported residual activity for O=C1Nc2cc(Br)ccc2/C1=C1/Nc2ccccc2/C1=N\O .
result: 73

query: Give a short answer stating reported residual activity for COc1cc2ncnc(N3CCN(C(=O)Nc4ccc(Oc5ccccc5)cc4)CC3)c2cc1OC .
result: 97

query: Give a short answer stating reported residual activity for O=Nc1c(-c2c(O)[nH]c3ccccc23)[nH]c2ccccc12 .
result: 10

query: Give a short answer stating reported residual activity for CO[C@H]1[C@@H](OC)C[C@H](C)[C@@H](OC)C2=CC(=O)C=C(NC(=O)/C(C)=C/C=C/[C@H](OC)[C@@H](OC(N)=O)/C(C)=C/[C@@H]1C)C2=O .
result: 81

* * *

biological target: AMP-activated protein kinase (AMPK) alpha-1/beta-1/gamma-1 (Homo sapiens) (UniProt P54619+Q9Y478+Q13131); settings: at 1 µM
Sequence (P54619 whole entry): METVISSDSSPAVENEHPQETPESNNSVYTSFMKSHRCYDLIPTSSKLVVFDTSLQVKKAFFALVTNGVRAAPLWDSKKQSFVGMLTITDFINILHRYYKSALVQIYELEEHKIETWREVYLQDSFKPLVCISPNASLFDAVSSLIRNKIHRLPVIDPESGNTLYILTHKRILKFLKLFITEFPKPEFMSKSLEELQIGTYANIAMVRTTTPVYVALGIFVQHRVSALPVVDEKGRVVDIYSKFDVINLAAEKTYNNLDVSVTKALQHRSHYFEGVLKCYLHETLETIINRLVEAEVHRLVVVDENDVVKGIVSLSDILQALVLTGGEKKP
Sequence (Q13131 whole entry partner): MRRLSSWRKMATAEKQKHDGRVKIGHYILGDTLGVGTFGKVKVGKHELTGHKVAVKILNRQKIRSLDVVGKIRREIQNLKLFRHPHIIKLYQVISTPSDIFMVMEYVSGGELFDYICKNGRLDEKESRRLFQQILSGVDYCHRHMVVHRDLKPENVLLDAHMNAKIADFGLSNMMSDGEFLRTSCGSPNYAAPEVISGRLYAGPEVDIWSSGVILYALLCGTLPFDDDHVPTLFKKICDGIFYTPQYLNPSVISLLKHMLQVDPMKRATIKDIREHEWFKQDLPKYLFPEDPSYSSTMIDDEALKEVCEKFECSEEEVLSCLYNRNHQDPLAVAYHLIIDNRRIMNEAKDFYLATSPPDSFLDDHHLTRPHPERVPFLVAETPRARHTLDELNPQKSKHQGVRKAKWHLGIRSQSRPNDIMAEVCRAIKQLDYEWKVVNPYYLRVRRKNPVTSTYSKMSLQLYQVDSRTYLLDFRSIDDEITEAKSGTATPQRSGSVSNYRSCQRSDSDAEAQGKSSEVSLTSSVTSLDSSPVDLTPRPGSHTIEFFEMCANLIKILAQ
Sequence (Q9Y478 2-270 partner limits assumed): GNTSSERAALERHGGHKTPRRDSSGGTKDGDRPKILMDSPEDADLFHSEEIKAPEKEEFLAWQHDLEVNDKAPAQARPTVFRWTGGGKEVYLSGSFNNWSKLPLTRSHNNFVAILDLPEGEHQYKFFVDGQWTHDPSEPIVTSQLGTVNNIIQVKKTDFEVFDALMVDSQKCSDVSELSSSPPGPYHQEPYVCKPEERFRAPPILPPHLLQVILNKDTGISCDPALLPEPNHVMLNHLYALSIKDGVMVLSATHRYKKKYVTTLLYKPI
value-kind: residual activity (%)
Expressed in %, but write only the number.

{"molecule": "CC(=O)O/N=C1\\C(=C2\\C(=O)Nc3cc(Br)ccc32)Nc2ccccc21", "result-unit": "%", "residual activity": 60}
{"molecule": "Nc1cccc(-c2cc3c(Oc4cccc(O)c4)ncnc3[nH]2)c1", "result-unit": "%", "residual activity": 53}
{"molecule": "Ic1cccc(CSc2nnc(-c3ccncc3)o2)c1", "result-unit": "%", "residual activity": 35}
{"molecule": "COc1cc2ncnc(Nc3ccc(Oc4ccccc4)cc3)c2cc1OC", "result-unit": "%", "residual activity": 86}
{"molecule": "Oc1n[nH]c2nnc(-c3c(-c4ccccc4)nn4ccccc34)cc12", "result-unit": "%", "residual activity": 86}

Would you kindly look at the next entry?
query: Give a short answer stating reported residual activity for CC#CC(=O)Nc1cc2c(Nc3ccc(F)c(Cl)c3)ncnc2cn1 .
result: 99

* * *

biological target: Mitogen-activated protein kinase 8 (Homo sapiens); details: at 1 µM
Description: Millipore: Percentage of residual kinase activity of MAPK8 at 1uM relative to control. Control inhibitor: Jnk Inhibitor II at 100.0uM. Buffer: 50 mM Tris pH 7.5, 0.1 mM EGTA, 0.1% ? -mercaptoethanol
The reader will find reported residual activity values listed item by item below.
Expressed in %, but write only the number.

Before answering, review these 3 worked examples.
{"molecule": "O=C(O)c1ccc2c3c1cccc3c(=O)n1c3ccccc3nc21", "result-unit": "%", "residual activity": 105}
{"molecule": "C[C@@H](N)[C@H]1CC[C@H](C(=O)Nc2ccncc2)CC1", "result-unit": "%", "residual activity": 98}
{"molecule": "Nc1n[nH]c2nnc(-c3c(-c4ccccc4)nn4ccccc34)cc12", "result-unit": "%", "residual activity": 99}

query: Fill: residual activity (Mitogen-activated protein kinase 8 (Homo sapiens)) for this compound O=Nc1c(-c2c(O)[nH]c3ccccc23)[nH]c2ccccc12
result: 63

query: Fill: residual activity (Mitogen-activated protein kinase 8 (Homo sapiens)) for this compound Oc1ccc(-c2nc(-c3ccc(F)cc3)c(-c3ccncc3)[nH]2)cc1
result: 99

query: Fill: residual activity (Mitogen-activated protein kinase 8 (Homo sapiens)) for this compound CCN(CC)CCCCN1c2ccccc2Oc2ccc(Cl)cc21
result: 113
